- system.tested: erythrocytes infected with P. falciparum field isolate 11019
- assay.info: flow cytometry, staining of IEs
measured.property: % parasite recognition (%)
Write it as a number; the unit % goes unstated.

Q: Quick one: % parasite recognition for MGC32 (antibody) VH: EVQLVESGGGLVQPGGSLRLSCVASGFNFRKSWMGWVRQAPGKGLEWVANIREDGSESFYADSVKGRFTVSRDNAKKSLYLHINSLRAEDTAVYYCARDRFCNDDEIHRHGQEDLPRPSISAAEGTVIPLGSHVTFVCRGPVGVQTFRLEKDSRSIYNDTENVSQPSPSESEARFRIDSVSEGNAGLYRCVYYKAPKWSAQSDYLELLVKGQEVTWALFTSCGGDGEEPDYDMDVRGKGTTVTVSS VL: DILMTQSPDSLAVSLGERATINCKSSQSVLYRSKNKNYLAWFQQKPGQPPKVLIYSTSTRASGVPDRFTGSGSGTDFTLTISSLQAEDVAVYYCLQYYITPYTFGQGTKLEIK ?
Result: 38.1

Q: Quick one: % parasite recognition for MGC7 (antibody) VH: EVQLVESGGDLVQPGGSLRLSCAASGFTFRNYWMSWVRQTPGKGLEWVANIRQDGSEKYYVDSVKGRFTISRDNAKNLLYLQMNSLRAEDTAVYYCVRDKFCSDENHMHVADDLPRPSISPEPGTVIPLGSHVTFVCRGPVGVQTFRLEKDRRSTYNDTEDVSQPSPSESEARFRIDSVTEGNAGLYRCVYYKPPKWSDQSDFLELLVKGEDVTWALFPHCGADGEDSDYYMDVWGKGTTVTVSS VL: DIQMTQSPSSVSASVGDRVTITCRASQGLSTWLAWYQQKPGKAPKILIYAASSLQSGVPSRFSGSGSGTDFTLTISSLQPEDFATYYCQQANSFPLTFGGGTKVEIK ?
Result: 13.8

Where do these numbers come from? They come from patent US20180186897A1.
